target: Melanocortin receptor 5 (Mus musculus); assay: Agonist activity at mouse melanocortin-5 receptor expressed in HEK293 cells co-transfected with CRE/beta-galactosidase reporter gene assessed as stimulatory response after 6 hrs
Sequence (P41149 whole entry): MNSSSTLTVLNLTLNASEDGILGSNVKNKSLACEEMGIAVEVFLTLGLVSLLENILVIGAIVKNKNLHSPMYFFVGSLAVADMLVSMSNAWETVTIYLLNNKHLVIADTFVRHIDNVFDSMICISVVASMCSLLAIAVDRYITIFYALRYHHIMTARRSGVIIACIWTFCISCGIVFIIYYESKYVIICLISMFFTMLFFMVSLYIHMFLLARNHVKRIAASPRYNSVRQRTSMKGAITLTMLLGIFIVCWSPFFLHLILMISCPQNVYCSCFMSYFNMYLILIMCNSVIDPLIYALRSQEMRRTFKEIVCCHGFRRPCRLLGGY
property: EC50 (nM)
Use nM as the unit, but write only the number.

Dear colleague, I am looking for the recorded EC50 of the following compound: `CC(=O)N[C@@H](CCCNC(=N)N)C(=O)N[C@H](Cc1ccc(I)cc1)C(=O)N1Cc2ccccc2C[C@H]1C(=O)N[C@H](Cc1ccc([N+](=O)[O-])cc1)C(N)=O`
1.1

Dear colleague, I am looking for the recorded EC50 of the following compound: `CC(=O)N[C@@H](Cc1c[nH]cn1)C(=O)N[C@H](Cc1ccc(Cl)cc1)C(=O)N1Cc2ccccc2C[C@H]1C(=O)N[C@H](Cc1ccc([N+](=O)[O-])cc1)C(N)=O`
0.63

Dear colleague, I am looking for the recorded EC50 of the following compound: `CC(=O)N[C@@H](CCCNC(=N)N)C(=O)N[C@H](Cc1ccc(Cl)cc1)C(=O)N1Cc2ccccc2C[C@H]1C(=O)N[C@H](Cc1ccc([N+](=O)[O-])cc1)C(N)=O`
1

Dear colleague, I am looking for the recorded EC50 of the following compound: `CC(=O)N[C@@H](Cc1c[nH]cn1)C(=O)N[C@H](Cc1ccc(I)cc1)C(=O)N1Cc2ccccc2C[C@H]1C(=O)N[C@H](Cc1ccc([N+](=O)[O-])cc1)C(N)=O`
0.84
